Target: T1, Peptide 8: Biotin-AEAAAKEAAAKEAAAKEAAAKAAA-Tyr-acid (N-terminal biotin; C-terminal acid)
T1 construct: Control peptide without PC
T1 peptide: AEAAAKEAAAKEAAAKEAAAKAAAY
Assay: scFv ELISA
Reported OD450 is given for each of the following binders.
# unit: OD450 | format: bare number

Some entries whose results are on file:
binder	unitAbbrev	OD450
PcOxP_DB02_G02 (scFv, V domains shown, scFv in periplasmic extract) VH: EVQLLESGGGLVQPGGSLRLSCAASGFGFSDFYMEWVRQAPGKGLEWVAASRNKANDYTTEYADSVKGRFTISRDNSKNTLYLQMNSLRAEDTAVYYCARDYYGSSYWYFDVWGQGTLVTVSS VL: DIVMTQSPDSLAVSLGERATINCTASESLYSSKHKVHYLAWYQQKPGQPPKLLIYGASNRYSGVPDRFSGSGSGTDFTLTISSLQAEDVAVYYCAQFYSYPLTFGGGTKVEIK	OD450	0.04
PcOxP_DB03_H02 (scFv, V domains shown, scFv in periplasmic extract) VH: EVQLLESGGGLVQPGGSLRLSCAASGFTESDFYMEWVRQAPGKGLEWVAASRNKYNDYTTEYADSVKGRFTISRDNSKNTLYLQMNSLRAEDTAVYYCARDYYGSSYWYFDVWGQGTLVTVSS VL: DIVMTQSPDSLAVSLGERATINCTASESLYSSKHKVHYLAWYQQKPGQPPKLLIYGAQNRYIGVPDRFSGSGSGTDFTLTISSLQAEDVAVYYCAQFYSYPLTFGGGTKVEIK	OD450	0.04
PcOxP_DB03_B06 (scFv, V domains shown, scFv in periplasmic extract) VH: EVQLLESGGGLVQPGGSLRLSCAASGITFSDFYMEWVRQAPGKGLEWVAASRNKYNDYTTEYADSVKGRFTISRDNSKNTLYLQMNSLRAEDTAVYYCARDYYGSSYWYFDVWGQGTLVTVSS VL: DIVMTQSPDSLAVSLGERATINCTASESLYSSKHKVHYLAWYQQKPGQPPKLLIYGASNRYTGVPDRFSGSGSGTDFTLTISSLQAEDVAVYYCAQFYSYPLTFGGGTKVEIK	OD450	0.05

Report measured OD450; entry is PcOxP_DB03_C10 (scFv, V domains shown, scFv in periplasmic extract) VH: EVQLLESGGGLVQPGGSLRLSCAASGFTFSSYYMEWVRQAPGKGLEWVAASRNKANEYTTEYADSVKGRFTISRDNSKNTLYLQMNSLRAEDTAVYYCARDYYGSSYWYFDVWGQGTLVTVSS VL: DIVMTQSPDSLAVSLGERATINCTASESLYSSKHKVHYLAWYQQKPGQPPKLLIYGAGNRYIGVPDRFSGSGSGTDFTLTISSLQAEDVAVYYCAQFYSYPLTFGGGTKVEIK
0.04

Report measured OD450; entry is PcOxP_DB03_C04 (scFv, V domains shown, scFv in periplasmic extract) VH: EVQLLESGGGLVQPGGSLRLSCAASGFTFSDFYMEWVRQAPGKGLEWVAASRNKANDYTTEYADSVKGRFTISRDNSKNTLYLQMNSLRAEDTAVYYCARDYYGSSYWYNDVWGQGTLVTVSS VL: DIVMTQSPDSLAVSLGERATINCTASESLYSSKHKVHYLAWYQQKPGQPPKLLIYGASNRYIGVPDRFSGSGSGTDFTLTISSLQAEDVAVYYCAQFYTYPLTFGGGTKVEIK
0.04

Report measured OD450; entry is PcOxP_DB03_D03 (scFv, V domains shown, scFv in periplasmic extract) VH: EVQLLESGGGLVQPGGSLRLSCAASGFTFSDYYMEWVRQAPGKGLEWVAASRNKANDYTTEYADSVKGRFTISRDNSKNTLYLQMNSLRAEDTAVYYCARDYYFSSYWYFDVWGQGTLVTVSS VL: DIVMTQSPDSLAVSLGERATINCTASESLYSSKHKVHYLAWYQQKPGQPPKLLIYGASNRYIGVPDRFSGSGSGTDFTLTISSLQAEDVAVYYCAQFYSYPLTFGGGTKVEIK
0.04

Report measured OD450; entry is PcOxP_DB03_F11 (scFv, V domains shown, scFv in periplasmic extract) VH: EVQLLESGGGLVQPGGSLRLSCAASGFTFSDYYMEWVRQAPGKGLEWVAASRNKANSYTTAYADSVKGRFTISRDNSKNTLYLQMNSLRAEDTAVYYCARDYYGSSYWYFDVWGQGTLVTVSS VL: DIVMTQSPDSLAVSLGERATINCTSSQSLLYSSNKKHYLAWYQQKPGQPPKLLIYGASNRYIGVPDRFSGSGSGTDFTLTISSLQAEDVAVYYCAQFYEYPLTFGGGTKVEIK
0.06

Report measured OD450; entry is PcOxP_DB03_B03 (scFv, V domains shown, scFv in periplasmic extract) VH: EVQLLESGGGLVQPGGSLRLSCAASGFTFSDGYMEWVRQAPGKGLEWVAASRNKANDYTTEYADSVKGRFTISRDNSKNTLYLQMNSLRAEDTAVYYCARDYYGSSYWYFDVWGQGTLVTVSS VL: DIVMTQSPDSLAVSLGERATINCTASESLYSSKHKVHYLAWYQQKPGQPPKLLIYGASNRYIGVPDRFSGSGSGTDFTLTISSLQAEDVAVYYCAQFYVYPLTFGGGTKVEIK
0.04

Report measured OD450; entry is PcOxP_DB02_G04 (scFv, V domains shown, scFv in periplasmic extract) VH: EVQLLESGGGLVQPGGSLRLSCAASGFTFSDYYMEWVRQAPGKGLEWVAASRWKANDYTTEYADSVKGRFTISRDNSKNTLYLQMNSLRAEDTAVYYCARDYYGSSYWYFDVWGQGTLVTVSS VL: DIVMTQSPDSLAVSLGERATINCKASQSVLYSKNKKHYLAWYQQKPGQPPKLLIYGASNRQIGVPDRFSGSGSGTDFTLTISSLQAEDVAVYYCAQFYVYPLTFGGGTKVEIK
0.05

Report measured OD450; entry is PcOxP_DB03_C08 (scFv, V domains shown, scFv in periplasmic extract) VH: EVQLLESGGGLVQPGGSLRLSCAASGSTFSDFYMEWVRQAPGKGLEWVAASRNKANDFTTEYADSVKGRFTISRDNSKNTLYLQMNSLRAEDTAVYYCARDYYGSSYWYFDVWGQGTLVTVSS VL: DIVMTQSPDSLAVSLGERATINCTASESLYSSKHKVHYLAWYQQKPGQPPKLLIYGASNRYSGVPDRFSGSGSGTDFTLTISSLQAEDVAVYYCAQFYHYPLTFGGGTKVEIK
0.05
